Test: Single-dose two-period crossover bioequivalence study, fed (high-fat breakfast): plasma pharmacokinetics of lisinopril and amlodipine (LC-MS/MS, NCA)
Settings: human, in vivo, po, Plasma concentration of lisinopril, individual subjects, nominal time 11 h, reference (R) tablets
PROPERTY LABEL: concentration at 11 h (ng/mL)

>  <SMILES STR>
NCCCC[C@H](N[C@@H](CCc1ccccc1)C(=O)O)C(=O)N1CCC[C@H]1C(=O)O

>  <PROPERTY LABEL>
concentration at 11 h

>  <OBSERVED RESULT>
12.9

$$$$

====

Test: Single-dose two-period crossover bioequivalence study, fed (high-fat breakfast): plasma pharmacokinetics of lisinopril and amlodipine (LC-MS/MS, NCA)
Conditions: human, plasma, po, Plasma concentration of lisinopril, Max, maximum among subjects, nominal time 12 h, reference (R) tablets

>  <SMILES STR>
NCCCC[C@H](N[C@@H](CCc1ccccc1)C(=O)O)C(=O)N1CCC[C@H]1C(=O)O

>  <SCALE UNIT>
ng/mL

>  <concentration at 12 h>
20.8

$$$$
